Origin of values: paper PMC6452685

Documented ΔTm at 40 µM across a set of compounds
measured.on: CpKRS (Cryptosporidium parvum)
Sequence (Q5CR27 entry or part of it): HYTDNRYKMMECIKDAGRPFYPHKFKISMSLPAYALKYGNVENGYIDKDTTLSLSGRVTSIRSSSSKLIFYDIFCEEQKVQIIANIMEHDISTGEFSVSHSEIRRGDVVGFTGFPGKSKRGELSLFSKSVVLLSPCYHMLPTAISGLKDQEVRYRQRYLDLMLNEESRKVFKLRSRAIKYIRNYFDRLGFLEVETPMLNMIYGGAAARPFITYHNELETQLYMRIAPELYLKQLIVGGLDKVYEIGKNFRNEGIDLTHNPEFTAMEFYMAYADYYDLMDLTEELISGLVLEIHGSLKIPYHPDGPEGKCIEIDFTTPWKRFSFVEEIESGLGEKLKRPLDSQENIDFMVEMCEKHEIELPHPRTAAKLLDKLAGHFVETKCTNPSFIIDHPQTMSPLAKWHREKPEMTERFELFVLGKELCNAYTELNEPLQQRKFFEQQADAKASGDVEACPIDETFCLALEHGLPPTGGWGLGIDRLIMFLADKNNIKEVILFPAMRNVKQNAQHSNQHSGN
protocol.details: Recombinant KRS thermal shift assay, CpKRS
Assay type: binding
experimental.conditions: Lysine; 40 µM inhibitor
Write down the numeric answer in °C and omit the unit.

Consider the reported ΔTm at 40 µM for these compounds:
compound: O=C(NCC1(O)CCCCC1)c1cc(=O)c2cc(F)ccc2o1
measured.on: CpKRS (Cryptosporidium parvum)
ΔTm at 40 µM, °C: 18.4
--
compound: O=C(NCC1CCCCC1)c1cc(=O)c2cc(F)ccc2o1
measured.on: CpKRS (Cryptosporidium parvum)
ΔTm at 40 µM, °C: 1.2

Asked: Enter recorded ΔTm at 40 µM with CpKRS (Cryptosporidium parvum) for O=C(NCC1(O)CCC(F)(F)CC1)c1cc(=O)c2cc(F)ccc2o1 here.
Given back: 14.7

Asked: Enter recorded ΔTm at 40 µM with CpKRS (Cryptosporidium parvum) for O=C(NCC1CCCCC1)c1cc(=O)c2ccccc2o1 here.
Given back: 19.3

Asked: Enter recorded ΔTm at 40 µM with CpKRS (Cryptosporidium parvum) for C[C@H]1CCC[C@H](C[C@H]2Cc3cc(O)cc(O)c3C(=O)O2)O1 [Compound 1, cladosporin, reference compound] here.
Given back: 19.5

----------
Documented MLM CLi across a set of molecules
protocol.details: Intrinsic clearance in mouse liver microsomes
Type: in vitro ADME

Consider the reported MLM CLi for these molecules:
molecule: O=C(NCC1(O)CCCCC1)c1cc(=O)c2cc(F)ccc2o1
recorded.result: 3 mL/min/g
//
molecule: O=C(NCC1(O)CCC(F)(F)CC1)c1cc(=O)c2cc(F)ccc2o1
recorded.result: 1 mL/min/g
//
molecule: O=C(NCC1CCCCC1)c1cc(=O)c2ccccc2o1
recorded.result: > 50 mL/min/g
//
molecule: C[C@H]1CCC[C@H](C[C@H]2Cc3cc(O)cc(O)c3C(=O)O2)O1 [Compound 1, cladosporin, reference compound]
recorded.result: 20 mL/min/g

Asked: Supply recorded MLM CLi for O=C(NCC1CCCCC1)c1cc(=O)c2cc(F)ccc2o1 here.
Given back: 23 mL/min/g

----------
measured.on: PfKRS1 (Plasmodium falciparum)
Sequence (Q8IDJ8 77-583): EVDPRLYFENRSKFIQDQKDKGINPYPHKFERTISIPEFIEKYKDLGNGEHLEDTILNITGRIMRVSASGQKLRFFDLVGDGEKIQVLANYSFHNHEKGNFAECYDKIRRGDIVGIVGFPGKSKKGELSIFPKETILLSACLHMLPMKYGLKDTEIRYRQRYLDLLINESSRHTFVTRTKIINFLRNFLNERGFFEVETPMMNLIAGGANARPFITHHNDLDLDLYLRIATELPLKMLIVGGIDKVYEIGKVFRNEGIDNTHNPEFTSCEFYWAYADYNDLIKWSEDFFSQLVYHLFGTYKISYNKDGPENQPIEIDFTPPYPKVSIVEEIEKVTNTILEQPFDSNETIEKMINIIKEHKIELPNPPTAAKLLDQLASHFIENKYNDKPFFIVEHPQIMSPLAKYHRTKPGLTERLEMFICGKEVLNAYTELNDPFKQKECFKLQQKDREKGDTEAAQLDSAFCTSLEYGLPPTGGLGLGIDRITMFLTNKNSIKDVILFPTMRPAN
protocol.details: Recombinant KRS thermal shift assay, PfKRS1
Format: binding
Parameters: recombinant PfKRS1 (77–583 and 80–583); 6xHis (N); made in house; host or cells: E. coli Rosetta BL21(DE3), vector pAVA0421
experimental.conditions: read-out: ΔTm PfKRS, Lysine; 40 µM inhibitor
readout: ΔTm at 40 µM

Consider the reported ΔTm at 40 µM for these molecules:
smiles.data: O=C(NCC1CCCCC1)c1cc(=O)c2cc(F)ccc2o1
ΔTm at 40 µM: 5.3 °C

smiles.data: O=C(NCC1(O)CCCCC1)c1cc(=O)c2cc(F)ccc2o1
ΔTm at 40 µM: 7.5 °C

smiles.data: O=C(NCC1CCCCC1)c1cc(=O)c2ccccc2o1
ΔTm at 40 µM: 7.4 °C

// below: ΔTm at 40 µM requested for another molecule
Asked: Supply recorded ΔTm at 40 µM for O=C(NCC1(O)CCC(F)(F)CC1)c1cc(=O)c2cc(F)ccc2o1 here.
Given back: 7.5 °C

----------
measured.on: CYP2D6 (Homo sapiens)
Sequence (P10635 whole entry): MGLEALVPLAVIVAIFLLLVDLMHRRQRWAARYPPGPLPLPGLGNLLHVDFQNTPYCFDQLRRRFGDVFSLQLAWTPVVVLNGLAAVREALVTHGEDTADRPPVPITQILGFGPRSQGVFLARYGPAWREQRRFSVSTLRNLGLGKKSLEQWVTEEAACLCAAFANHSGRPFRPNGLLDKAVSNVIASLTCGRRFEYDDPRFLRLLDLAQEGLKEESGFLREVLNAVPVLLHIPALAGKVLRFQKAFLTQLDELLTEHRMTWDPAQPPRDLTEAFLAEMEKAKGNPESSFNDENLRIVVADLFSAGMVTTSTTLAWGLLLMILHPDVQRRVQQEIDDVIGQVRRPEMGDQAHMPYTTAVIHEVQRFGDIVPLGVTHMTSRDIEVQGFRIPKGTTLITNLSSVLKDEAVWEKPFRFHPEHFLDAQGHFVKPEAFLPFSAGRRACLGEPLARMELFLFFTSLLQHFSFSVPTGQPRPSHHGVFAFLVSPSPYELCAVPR
readout: IC50

Asked: Enter recorded IC50 with CYP2D6 (Homo sapiens) for O=C(NCC1(O)CCC(F)(F)CC1)c1cc(=O)c2cc(F)ccc2o1 here.
Given back: > 10 µM

----------
Documented ΔTm at 40 µM across a set of compounds
measured.on: HsKRS (Homo sapiens, UniProt Q15046)
Construct: HsKRS (full-length) proteins; 6xHis (N); made in house; host or cells: E. coli Rosetta BL21(DE3), vector pAVA0421 (UW); template pET28a-KRS
Sequence (Q15046 whole entry): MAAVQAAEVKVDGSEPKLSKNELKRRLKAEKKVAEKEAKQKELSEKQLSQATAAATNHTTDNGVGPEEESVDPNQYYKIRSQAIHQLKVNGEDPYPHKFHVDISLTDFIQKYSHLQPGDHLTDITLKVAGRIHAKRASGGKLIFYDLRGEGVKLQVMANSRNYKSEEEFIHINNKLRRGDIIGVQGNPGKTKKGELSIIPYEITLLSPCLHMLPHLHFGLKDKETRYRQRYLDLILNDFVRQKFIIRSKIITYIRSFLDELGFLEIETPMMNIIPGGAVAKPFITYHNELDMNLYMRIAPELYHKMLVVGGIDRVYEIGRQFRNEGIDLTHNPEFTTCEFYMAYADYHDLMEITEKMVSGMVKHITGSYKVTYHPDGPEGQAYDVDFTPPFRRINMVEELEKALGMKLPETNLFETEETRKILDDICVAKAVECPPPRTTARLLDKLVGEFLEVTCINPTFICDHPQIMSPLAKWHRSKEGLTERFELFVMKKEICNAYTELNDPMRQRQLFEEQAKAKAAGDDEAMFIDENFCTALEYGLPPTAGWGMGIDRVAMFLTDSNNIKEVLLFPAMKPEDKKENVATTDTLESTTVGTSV
protocol.details: Recombinant KRS thermal shift assay, HsKRS
Assay type: binding
experimental.conditions: ATP + Lysine; 40 µM inhibitor
Write down the numeric answer in °C and omit the unit.

Consider the reported ΔTm at 40 µM for these compounds:
compound: O=C(NCC1(O)CCCCC1)c1cc(=O)c2cc(F)ccc2o1
ΔTm at 40 µM, °C: -7.2
//
compound: O=C(NCC1(O)CCC(F)(F)CC1)c1cc(=O)c2cc(F)ccc2o1
ΔTm at 40 µM, °C: -7.4

Asked: Enter recorded ΔTm at 40 µM with HsKRS (Homo sapiens, UniProt Q15046) for O=C(NCC1CCCCC1)c1cc(=O)c2ccccc2o1 here.
Given back: -8.6

Asked: Enter recorded ΔTm at 40 µM with HsKRS (Homo sapiens, UniProt Q15046) for O=C(NCC1CCCCC1)c1cc(=O)c2cc(F)ccc2o1 here.
Given back: -10.8

Asked: Enter recorded ΔTm at 40 µM with HsKRS (Homo sapiens, UniProt Q15046) for C[C@H]1CCC[C@H](C[C@H]2Cc3cc(O)cc(O)c3C(=O)O2)O1 [Compound 1, cladosporin, reference compound] here.
Given back: -8.2

----------
protocol.details: In vivo pharmacokinetics in mouse
experimental.conditions: female, BALB/c, whole blood, po, orally, 10 mg/kg, read-out: Mouse PK orally F% (oral bioavailability)
readout: bioavailability
Please report the result as a number followed by the unit.

Asked: Supply recorded bioavailability for O=C(NCC1(O)CCC(F)(F)CC1)c1cc(=O)c2cc(F)ccc2o1 here.
Given back: 100%

----------
Test system: P. berghei liver schizonts
protocol.details: P. berghei liver schizonts (luciferase)
Assay type: cell-based
experimental.conditions: Plasmodium berghei
readout: pEC50
Answer as the number alone; pEC50 is minus log10 of concentration in mol/L.

Asked: Enter recorded pEC50 with P. berghei liver schizonts for O=C(NCC1(O)CCC(F)(F)CC1)c1cc(=O)c2cc(F)ccc2o1 here.
Given back: 6.05

----------
Documented pIC50 across a set of compounds
measured.on: PfKRS1 (Plasmodium falciparum)
protocol.details: PfKRS1 SAR assay, luciferase ATP consumption (Kinase-Glo)
Format: biochemical
Set-up: recombinant PfKRS1 (77–583 and 80–583); 6xHis (N); made in house; host or cells: E. coli Rosetta BL21(DE3), vector pAVA0421
experimental.conditions: Kinase-Glo assay
Answer as the number alone; pIC50 is minus log10 of concentration in mol/L.

Consider the reported pIC50 for these compounds:
compound: O=C(NCC1(O)CCCCC1)c1cc(=O)c2cc(F)ccc2o1 [Compound 4]
measured.on: PfKRS1 (Plasmodium falciparum)
recorded.result: 8.30
//
compound: O=C(NCC1CCCCC1)c1cc(=O)c2ccccc2o1 [Compound 2]
measured.on: PfKRS1 (Plasmodium falciparum)
recorded.result: 8.40

Asked: Enter recorded pIC50 with PfKRS1 (Plasmodium falciparum) for O=C(NCC1(O)CCC(F)(F)CC1)c1cc(=O)c2cc(F)ccc2o1 [Compound 5] here.
Given back: 7.82

Asked: Enter recorded pIC50 with PfKRS1 (Plasmodium falciparum) for C[C@H]1CCC[C@H](C[C@H]2Cc3cc(O)cc(O)c3C(=O)O2)O1 [Compound 1, cladosporin, reference compound] here.
Given back: 8.40

Asked: Enter recorded pIC50 with PfKRS1 (Plasmodium falciparum) for O=C(NCC1CCCCC1)c1cc(=O)c2cc(F)ccc2o1 [Compound 3] here.
Given back: 7.85

----------
Documented ΔTm at 40 µM across a set of molecules
measured.on: UniProt Q8IDJ8
protocol.details: Recombinant KRS thermal shift assay, PfKRS1
Assay type: binding
Set-up: recombinant PfKRS1 (77–583 and 80–583); 6xHis (N); made in house; host or cells: E. coli Rosetta BL21(DE3), vector pAVA0421
experimental.conditions: read-out: ΔTm PfKRS, no substrate; 40 µM inhibitor

Consider the reported ΔTm at 40 µM for these molecules:
molecule: O=C(NCC1CCCCC1)c1cc(=O)c2cc(F)ccc2o1 [Compound 3]
ΔTm at 40 µM: 0.5 °C
--
molecule: O=C(NCC1CCCCC1)c1cc(=O)c2ccccc2o1 [Compound 2]
ΔTm at 40 µM: 1.2 °C
--
molecule: O=C(NCC1(O)CCC(F)(F)CC1)c1cc(=O)c2cc(F)ccc2o1 [Compound 5]
ΔTm at 40 µM: 1.3 °C

// below: ΔTm at 40 µM requested for another molecule
Asked: Supply recorded ΔTm at 40 µM for O=C(NCC1(O)CCCCC1)c1cc(=O)c2cc(F)ccc2o1 [Compound 4] here.
Given back: 0.9 °C

----------
System: Nanoluciferase-expressing C. parvum
protocol.details: Inhibition of Nanoluciferase expressing C. parvum growth in HCT-8 cells
Format: cell-based, Cryptosporidium parvum
experimental.conditions: C. parvum growth in HCT-8 cells; read-out: Nluc Cp EC50
readout: EC50 (nM)
Write down the numeric answer in nM and omit the unit.

Asked: Enter recorded EC50 with Nanoluciferase-expressing C. parvum for C[C@H]1CCC[C@H](C[C@H]2Cc3cc(O)cc(O)c3C(=O)O2)O1 [Compound 1, cladosporin, reference compound] here.
Given back: 670

----------
measured.on: HsKRS (Homo sapiens)
Documented pIC50 across a set of compounds
Answer as the number alone; pIC50 is minus log10 of concentration in mol/L.

compound: O=C(NCC1(O)CCC(F)(F)CC1)c1cc(=O)c2cc(F)ccc2o1 [Compound 5]
pIC50: 5.74

Asked: Enter recorded pIC50 with HsKRS (Homo sapiens) for O=C(NCC1(O)CCCCC1)c1cc(=O)c2cc(F)ccc2o1 [Compound 4] here.
Given back: 6.13
